# System: MDA-MB-231
# Assay Comment: Antiproliferative activity against human MDA-MB-231 cells assessed as inhibition of cell growth after 72 hrs by MTT assay
# Assay type: functional, cell-based
# Applied Conditions: MDA-MB-231, 72 h
pIC50: −log10 of the molar value.
Reported Endpoint: pIC50

Chem Smiles	Tgt	Endpoint Result
COc1ccc2c(-c3cc(OC)c(OC)c(OC)c3)nc(C(N)=O)cc2c1	MDA-MB-231	< 5.00
COc1cc(-c2nc(C(N)=O)cc3cc(OCCCN4CCOCC4)ccc23)cc(OC)c1OC	MDA-MB-231	< 5.00
CCCOc1cc(-c2nc(C(N)=O)cc3cc4c(cc23)OCCO4)cc(OC)c1OC	MDA-MB-231	< 5.00
CCOc1c(OC)cc(-c2nc(C(N)=O)cc3cc4c(cc23)OCCO4)cc1OC	MDA-MB-231	< 5.00
CCCOc1ccc2c(-c3cc(OC)c(OC)c(OC)c3)nc(C(N)=O)cc2c1	MDA-MB-231	< 5.00
CCOc1ccc2c(-c3cc(OC)c(OC)c(OC)c3)nc(C(N)=O)cc2c1	MDA-MB-231	< 5.00
